molecular target: α-glucosidase (Saccharomyces cerevisiae, UniProt P53341); construct: purchased Shanghai Yuanye Biotechnology Co., Shanghai, China Lot No. M23HS178879 (catalogue number not given); experiment: Mixture effects of flavonoid combinations on α-glucosidase; format: biochemical; conditions: calculated from the dose–response curve
Sequence (P53341 whole entry): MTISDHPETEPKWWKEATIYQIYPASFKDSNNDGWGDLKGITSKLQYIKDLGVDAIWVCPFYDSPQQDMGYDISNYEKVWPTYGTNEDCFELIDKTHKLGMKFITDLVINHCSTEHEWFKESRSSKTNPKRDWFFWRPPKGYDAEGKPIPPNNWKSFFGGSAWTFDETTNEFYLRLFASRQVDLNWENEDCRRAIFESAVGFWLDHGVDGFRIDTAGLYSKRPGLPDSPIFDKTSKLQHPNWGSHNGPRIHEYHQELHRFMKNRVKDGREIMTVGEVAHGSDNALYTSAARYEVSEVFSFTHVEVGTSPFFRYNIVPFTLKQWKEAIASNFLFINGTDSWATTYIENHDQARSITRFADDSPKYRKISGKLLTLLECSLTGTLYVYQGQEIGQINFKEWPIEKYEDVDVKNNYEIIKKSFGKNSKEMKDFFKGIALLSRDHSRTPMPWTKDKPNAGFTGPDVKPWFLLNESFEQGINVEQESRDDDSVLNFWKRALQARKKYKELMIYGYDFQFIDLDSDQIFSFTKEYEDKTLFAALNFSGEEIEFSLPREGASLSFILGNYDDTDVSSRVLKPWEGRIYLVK
VALUE KIND: IC05
Provide a numeric answer, followed by its unit.

# annotated cases, reported IC05 shown
O=C1C[C@@H](c2ccc(O)cc2)Oc2cc(O)ccc21 [C3, liquiritigenin] : 13.71 µM
O=C1c2ccc(O)cc2OCC1c1ccc(O)cc1 (stereo not shown) [C28, dihydrodaidzein] : 98.27 µM
COc1ccc2c(c1OC)OC1c3ccc(O[C@@H]4O[C@H](CO)[C@@H](O)[C@H](O)[C@H]4O)cc3OCC21 (stereo partly shown) [C19, astrapterocarpan-3-O-glucoside] : 82.58 µM

Kindly review the next compound as well.
// query // fetch α-glucosidase (Saccharomyces cerevisiae, UniProt P53341) IC05 for COc1ccc(-c2coc3cc(O[C@@H]4O[C@H](CO)[C@@H](O)[C@H](O)[C@H]4O)ccc3c2=O)cc1O [C16, calycosin-7-O-glucoside]
// result 150.00 µM
